System: P12-Ichikawa
measurement.protocol: cell viability relative to DMSO control; higher = less cytotoxic
experimental.conditions: RPMI 5 mM glucose + 10% FBS; 48 h; 0.00702 µM
experimental.readout: cell viability

# compound, result
data = [
    ("C[C@]1(O)CC(C1)C2=NC(=C3[N]2C=CN=C3N)C4=CC5=C(C=C4)C=CC(=N5)C6=CC=CC=C6 (centres undefined)", "103%"),
    ("Nc1nc(F)nc2c1ncn2[C@@H]1O[C@H](COP(=O)(O)O)[C@@H](O)[C@@H]1O", "132%"),
    ("CC1(C)SCCN([S+](=O)([O-])c2ccc(OCC#CCO)cc2)[C@H]1C(=O)NO", "101%"),
    ("C[C@H](CCC(=O)O)[C@H]1CC[C@H]2[C@@H]3[C@H](O)C[C@@H]4C[C@H](O)CC[C@]4(C)[C@H]3CC[C@]12C", "89.2%"),
]

----------
Test system: SEM cells
measurement.protocol: cell viability relative to DMSO control; higher = less cytotoxic
experimental.conditions: RPMI 5 mM glucose + 10% FBS; 48 h; 5.12 µM
experimental.readout: cell viability (%)

# molecule, experimental.readout, result.number
records = [
    ("CC[C@H]1OC(=O)[C@H](C)[C@@H](O[C@H]2C[C@@](C)(OC)[C@@H](O)[C@H](C)O2)[C@H](C)[C@@H](O[C@@H]2O[C@H](C)C[C@H](N(C)C)[C@H]2O)[C@](C)(OC)C[C@@H](C)C(=O)[C@H](C)[C@@H](O)[C@]1(C)O", "cell viability", 90.4),
    ("C/C1=C2/[N]3[Co+]456([OH])<-[N]7=C1[C@@H](CCC(N)=O)C(C)(C)/C7=C/C1=[N]->4C(=C(/C)C4=[N]->5[C@@](C)([C@H]3[C@H](CC(N)=O)[C@@]2(C)CCC(=O)NC[C@@H](C)OP(=O)([O-])O[C@H]2[C@@H](O)[C@@H](n3c[n]->6c5cc(C)c(C)cc53)O[C@@H]2CO)[C@@](C)(CC(N)=O)[C@@H]4CCC(N)=O)/[C@@](C)(CC(N)=O)[C@@H]1CCC(N)=O", "cell viability", 77.1),
    ("CCC(CCCC)COC(=O)C(\\C#N)=C(\\c1ccccc1)c2ccccc2 (stereo not given)", "cell viability", 95.6),
    ("CN(C)c1nc(Cc2ccc(NC(=O)c3ccc(C(F)(F)F)cc3)cc2)nc(N(C)C)c1CC(=O)O", "cell viability", 110),
    ("CC1(C)SCCN([S+](=O)([O-])c2ccc(OCC#CCO)cc2)[C@H]1C(=O)NO", "cell viability", 106),
]

----------
Tested on: P12-Ichikawa
measurement.protocol: cell viability relative to DMSO control; higher = less cytotoxic
experimental.conditions: RPMI 5 mM glucose + 10% FBS; 48 h; 0.0632 µM

# compound, cell viability
records = [
    ("COc1c(Cl)cc2c([nH]c3cnccc32)c1NC(=O)c1cccnc1C", "112%"),
    ("CCC(CCCC)COC(=O)C(\\C#N)=C(\\c1ccccc1)c2ccccc2 (stereo not given)", "110%"),
    ("Nc1ccc(C(=O)Nc2cccc(-c3nc(N4CCOCC4)c4oc5ncccc5c4n3)c2)cn1", "124%"),
    ("C[S+](=O)([O-])Oc1ccc2c(NC(N)=O)c(C(=O)c3ccc(Cl)cc3Cl)oc2c1", "130%"),
    ("COCCn1c2c([n+](Cc3cnccn3)c1C)C(=O)c1ccccc1C2=O", "112%"),
]

Measured values drawn from the supplement of paper PMC11451515 for this set.
